Assay: Cytotoxicity assay in MT-4 cells
Type: cell-based
Conditions: human; uninfected MT-4 cells, 5 days incubation, Cell Titer Glo; read-out: MT4 CC50
Reported values of CC50 at 5 days for individual entries
measurementType: CC50 at 5 days (µM)

compound="COCCOCCOC(=O)OCOc1c2n(cc(C(=O)NCc3ccc(F)cc3F)c1=O)[C@@H]1CN(C2=O)[C@@H](C)CC[C@]12CC(C)=NO2 [Example 23]" measurementtype="CC50 at 5 days" uom=µM operatorsymbol== quantitativereadout=27.3
compound="CC1=NO[C@@]2(CC[C@H](C)N3C[C@H]2n2cc(C(=O)NCc4ccc(F)cc4F)c(=O)c(OC(=O)/C=C/C(=O)O)c2C3=O)C1 [Example 75]" measurementtype="CC50 at 5 days" uom=µM operatorsymbol== quantitativereadout=16.1
compound="CCCCCCCCCC(=O)OCOc1c2n(cc(C(=O)NCc3ccc(F)cc3F)c1=O)[C@@H]1CN(C2=O)[C@@H](C)CC[C@]12CC(C)=NO2 [Example 100]" measurementtype="CC50 at 5 days" uom=µM operatorsymbol=≥ quantitativereadout=50
compound="CCCCCCCCOC(=O)OCOc1c2n(cc(C(=O)NCc3ccc(F)cc3F)c1=O)[C@@H]1CN(C2=O)[C@@H](C)CC[C@]12CC(C)=NO2 [Example 178]" measurementtype="CC50 at 5 days" uom=µM operatorsymbol== quantitativereadout=15.8
compound="CCCCCCCOC(=O)Oc1c2n(cc(C(=O)NCc3ccc(F)cc3F)c1=O)[C@@H]1CN(C2=O)[C@@H](C)CC[C@]12CC(OC)=NO2 [Example 134]" measurementtype="CC50 at 5 days" uom=µM operatorsymbol== quantitativereadout=25.7
compound="COCCOCCOCCOC(=O)Oc1c2n(cc(C(=O)NCc3ccc(F)cc3F)c1=O)[C@@H]1CN(C2=O)[C@@H](C)CC[C@]12CC(OC)=NO2 [Example 3]" measurementtype="CC50 at 5 days" uom=µM operatorsymbol== quantitativereadout=16.3

----------
Assay: Cytotoxicity assay in MT-4 cells
Type: cell-based
Conditions: human; uninfected MT-4 cells, 5 days incubation, Cell Titer Glo; read-out: MT4 CC50
Define the label as Yes when CC50 at 5 days is strictly less than 30 µM and as No in all remaining cases.

cpdsmiles=CCCCOC(=O)OCOc1c2n(cc(C(=O)NCc3ccc(F)cc3F)c1=O)[C@@H]1CN(C2=O)[C@@H](C)CC[C@]12CC(C)=NO2 discretelabel=Yes
cpdsmiles=COC1=NO[C@@]2(CC[C@H](C)N3C[C@H]2n2cc(C(=O)NCc4ccc(F)cc4F)c(=O)c(OC(=O)CCCCCC(=O)O)c2C3=O)C1 discretelabel=Yes
cpdsmiles=COC1=NO[C@@]2(CC[C@H](C)N3C[C@H]2n2cc(C(=O)NCc4ccc(F)cc4F)c(=O)c(OCOC(=O)CCC(C)C)c2C3=O)C1 discretelabel=Yes
cpdsmiles=COCCCCCC(=O)Oc1c2n(cc(C(=O)NCc3ccc(F)cc3F)c1=O)[C@@H]1CN(C2=O)[C@@H](C)CC[C@]12CC(OC)=NO2 discretelabel=Yes
cpdsmiles=CC1=NO[C@@]2(CC[C@H](C)N3C[C@H]2n2cc(C(=O)NCc4ccc(F)cc4F)c(=O)c(OC(=O)CCCCCCC(C)C)c2C3=O)C1 discretelabel=Yes
cpdsmiles=CCCCCCCCCCCCCCCCCC(=O)Oc1c2n(cc(C(=O)NCc3ccc(F)cc3F)c1=O)[C@@H]1CN(C2=O)[C@@H](C)CC[C@]12CC(C)=NO2 discretelabel=No
cpdsmiles=COCCOC(=O)OCOc1c2n(cc(C(=O)NCc3ccc(F)cc3F)c1=O)[C@@H]1CN(C2=O)[C@@H](C)CC[C@]12CC(C)=NO2 discretelabel=No
cpdsmiles=COC(=O)OCOc1c2n(cc(C(=O)NCc3ccc(F)cc3F)c1=O)[C@@H]1CN(C2=O)[C@@H](C)CC[C@]12CC(C)=NO2 discretelabel=Yes
cpdsmiles=COCCOC(=O)Oc1c2n(cc(C(=O)NCc3ccc(F)cc3F)c1=O)[C@@H]1CN(C2=O)[C@@H](C)CC[C@]12CC(OC)=NO2 discretelabel=Yes
cpdsmiles=COC1=NO[C@@]2(CC[C@H](C)N3C[C@H]2n2cc(C(=O)NCc4ccc(F)cc4F)c(=O)c(OCOC(=O)OCCCCCCCC(C)C)c2C3=O)C1 discretelabel=No
cpdsmiles=CCCCC(=O)OCOc1c2n(cc(C(=O)NCc3ccc(F)cc3F)c1=O)[C@@H]1CN(C2=O)[C@@H](C)CC[C@]12CC(OC)=NO2 discretelabel=Yes
cpdsmiles=CCCCCCOC(=O)OCOc1c2n(cc(C(=O)NCc3ccc(F)cc3F)c1=O)[C@@H]1CN(C2=O)[C@@H](C)CC[C@]12CC(OC)=NO2 discretelabel=No

----------
Measured CC50 at 5 days, listed per entry for reference.
Assay: Cytotoxicity assay in MT-4 cells
Format: cell-based
Details: human; uninfected MT-4 cells, 5 days incubation, Cell Titer Glo; read-out: MT4 CC50
measurementType: CC50 at 5 days (µM)

cpdsmiles=COC1=NO[C@@]2(CC[C@H](C)N3C[C@H]2n2cc(C(=O)NCc4ccc(F)cc4F)c(=O)c(OCOC(=O)CCCCCCC(C)C)c2C3=O)C1 measurementtype="CC50 at 5 days" quantitativereadout=43.8
cpdsmiles=COCCOCCOCCOCCOCCOCCOCCOC(=O)Oc1c2n(cc(C(=O)NCc3ccc(F)cc3F)c1=O)[C@@H]1CN(C2=O)[C@@H](C)CC[C@]12CC(OC)=NO2 measurementtype="CC50 at 5 days" quantitativereadout=37.6
cpdsmiles=COC1=NO[C@@]2(CC[C@H](C)N3C[C@H]2n2cc(C(=O)NCc4ccc(F)cc4F)c(=O)c(OCOC(=O)CCCCC(C)C)c2C3=O)C1 measurementtype="CC50 at 5 days" quantitativereadout=19.7
cpdsmiles=CCCCCCOC(=O)Oc1c2n(cc(C(=O)NCc3ccc(F)cc3F)c1=O)[C@@H]1CN(C2=O)[C@@H](C)CC[C@]12CC(C)=NO2 measurementtype="CC50 at 5 days" quantitativereadout=19.8
cpdsmiles=CCCCCCC(=O)Oc1c2n(cc(C(=O)NCc3ccc(F)cc3F)c1=O)[C@@H]1CN(C2=O)[C@@H](C)CC[C@]12CC(C)=NO2 measurementtype="CC50 at 5 days" quantitativereadout=23.7
cpdsmiles=CC1=NO[C@@]2(CC[C@H](C)N3C[C@H]2n2cc(C(=O)NCc4ccc(F)cc4F)c(=O)c(OC(=O)CCCC(C)C)c2C3=O)C1 measurementtype="CC50 at 5 days" quantitativereadout=20.6
cpdsmiles=CC1=NO[C@@]2(CC[C@H](C)N3C[C@H]2n2cc(C(=O)NCc4ccc(F)cc4F)c(=O)c(OC(=O)OC(C)C)c2C3=O)C1 measurementtype="CC50 at 5 days" quantitativereadout=12.5

----------
Assay: Cytotoxicity assay in MT-4 cells
Format: cell-based
Conditions: human; uninfected MT-4 cells, 5 days incubation, Cell Titer Glo; read-out: MT4 CC50
Quick rule for you: CC50 at 5 days under 30 µM gets MET, anything else gets NOT MET.

molecule=COCCOCCOCCOCCOCCOCCOCCOC(=O)Oc1c2n(cc(C(=O)NCc3ccc(F)cc3F)c1=O)[C@@H]1CN(C2=O)[C@@H](C)CC[C@]12CC(C)=NO2 discretelabel=MET
molecule=CCCCCCCCCCCCOC(=O)Oc1c2n(cc(C(=O)NCc3ccc(F)cc3F)c1=O)[C@@H]1CN(C2=O)[C@@H](C)CC[C@]12CC(C)=NO2 discretelabel=MET
molecule=CCCCCCCCCCCCOC(=O)Oc1c2n(cc(C(=O)NCc3ccc(F)cc3F)c1=O)[C@@H]1CN(C2=O)[C@@H](C)CC[C@]12CC(OC)=NO2 discretelabel="NOT MET"
molecule="CCC(C)C(=O)Oc1c2n(cc(C(=O)NCc3ccc(F)cc3F)c1=O)[C@@H]1CN(C2=O)[C@@H](C)CC[C@]12CC(C)=NO2 (some centres unmarked)" discretelabel=MET
molecule=COCCOC(=O)OCOc1c2n(cc(C(=O)NCc3ccc(F)cc3F)c1=O)[C@@H]1CN(C2=O)[C@@H](C)CC[C@]12CC(OC)=NO2 discretelabel="NOT MET"
molecule=CCCOC(=O)Oc1c2n(cc(C(=O)NCc3ccc(F)cc3F)c1=O)[C@@H]1CN(C2=O)[C@@H](C)CC[C@]12CC(OC)=NO2 discretelabel=MET
molecule=CO[C@H](C)COC(=O)OCOc1c2n(cc(C(=O)NCc3ccc(F)cc3F)c1=O)[C@@H]1CN(C2=O)[C@@H](C)CC[C@]12CC(C)=NO2 discretelabel=MET
molecule=CC1=NO[C@@]2(CC[C@H](C)N3C[C@H]2n2cc(C(=O)NCc4ccc(F)cc4F)c(=O)c(OCOC(=O)CCCC(C)C)c2C3=O)C1 discretelabel=MET
molecule=CC1=NO[C@@]2(CC[C@H](C)N3C[C@H]2n2cc(C(=O)NCc4ccc(F)cc4F)c(=O)c(OCOC(=O)OCCCCCC(C)C)c2C3=O)C1 discretelabel=MET
molecule=COCCOCCOC(=O)OCOc1c2n(cc(C(=O)NCc3ccc(F)cc3F)c1=O)[C@@H]1CN(C2=O)[C@@H](C)CC[C@]12CC(OC)=NO2 discretelabel="NOT MET"
molecule=CCOC(=O)Oc1c2n(cc(C(=O)NCc3ccc(F)cc3F)c1=O)[C@@H]1CN(C2=O)[C@@H](C)CC[C@]12CC(OC)=NO2 discretelabel=MET
molecule=CCOC(=O)OCOc1c2n(cc(C(=O)NCc3ccc(F)cc3F)c1=O)[C@@H]1CN(C2=O)[C@@H](C)CC[C@]12CC(OC)=NO2 discretelabel="NOT MET"
molecule=CC1=NO[C@@]2(CC[C@H](C)N3C[C@H]2n2cc(C(=O)NCc4ccc(F)cc4F)c(=O)c(OCOC(=O)CCCCC(C)C)c2C3=O)C1 discretelabel=MET
molecule=COC1=NO[C@@]2(CC[C@H](C)N3C[C@H]2n2cc(C(=O)NCc4ccc(F)cc4F)c(=O)c(OC(=O)CCC(C)C)c2C3=O)C1 discretelabel="NOT MET"
